Protocol notes: Toxicity in iv dosed Kun Ming mouse
Format: organism-based
Test settings: in vivo
Readout: MTD

Entry O=C([O-])CCC(=O)[N-]S(=O)(=O)c1ccc(-n2nc(C(F)(F)F)cc2-c2ccc3ccccc3c2)cc1.[Na+].[Na+] , MTD reported as > 1500 mg/kg
